conditions: human liver microsomes 0.5 mg/mL, 1 uM compound, NADPH
Reported Metric: Human Pred Cl. (L/H/kg)
Express the result in L/H/kg but write the number alone.

Input COC(=O)N[C@H](C(=O)N[C@@H](Cc1ccc(C#Cc2cnc(N3CCN(C4COC4)CC3)nc2)cc1)[C@@H](O)CN(Cc1c(F)cc(-c2cnn(C(F)F)c2)cc1F)NC(=O)[C@@H](NC(=O)OC)C(C)(C)C(F)(F)F)C(C)(C)C(F)(F)F . Output Human Pred Cl.: 0.16

###

details: human, microsomes
Reported Metric: Human Pred Cl.

Quick note, Human Pred Cl. for COC(=O)N[C@H](C(=O)N[C@@H](Cc1ccc(C#Cc2cnc(N3CC4CCC(C3)N4C3COC3)nc2)cc1)[C@@H](O)CN(Cc1c(F)cc(-c2ccn(C(F)F)n2)cc1F)NC(=O)[C@@H](NC(=O)OC)C(C)(C)C(F)(F)F)C(C)(C)C(F)(F)F landed at <0.11 L/H/kg

Field Human Pred Cl. (entry COC(=O)N[C@H](C(=O)N[C@@H](Cc1ccc(C#Cc2ccc(N3CC4CCC(C3)N4C3COC3)nc2C)cc1)[C@@H](O)CN(Cc1c(F)cc(-c2ccccn2)cc1F)NC(=O)[C@@H](NC(=O)OC)C(C)(C)C(F)(F)F)C(C)(C)C(F)(F)F ) reads <0.11 L/H/kg

Entry COC(=O)N[C@H](C(=O)NN(Cc1c(F)cc(-c2cnccn2)cc1F)C[C@H](O)[C@H](Cc1ccc(C#Cc2ccc(N3CC4CCC(C3)N4C3COC3)nc2)cc1)NC(=O)[C@@H](NC(=O)OC)C(C)(C)C(F)(F)F)C(C)(C)C , Human Pred Cl. reported as 1.1 L/H/kg

COC(=O)N[C@H](C(=O)N[C@@H](Cc1ccc(-c2ccc(N3CC4CCC(C3)N4C3COC3)nc2)cc1)[C@@H](O)CN(Cc1c(F)cc(-c2ccn(C)n2)cc1F)NC(=O)[C@@H](NC(=O)OC)C(C)(C)C)C(C)(C)C has a reported Human Pred Cl. of 0.41 L/H/kg

###

test: 3H Human Predicted Clearance Assay (tritiated analogs); type: in vitro ADME; settings: human, 1 uM
For each record, write down the corresponding 3H Human Predicted Cl..
# answer = number (no unit)

Note to self: 3H Human Predicted Cl. recorded for COC(=O)N[C@H](C(=O)N[C@@H](Cc1ccc(C#Cc2cnc(N3CC4CCC(C3)N4C3COC3)nc2)cc1)[C@@H](O)CN(Cc1c(F)cc(-c2ccn(CC(F)F)n2)cc1F)NC(=O)[C@@H](NC(=O)OC)C(C)(C)C(F)(F)F)C(C)(C)C(F)(F)F was 0.1

3H Human Predicted Cl. measured on COC(=O)N[C@H](C(=O)N[C@@H](Cc1ccc(C#Cc2cnc(N3CC4CCC(C3)N4C3COC3)c(C)c2)cc1)[C@@H](O)CN(Cc1c(F)cc(-c2cnn(C(F)F)c2)cc1F)NC(=O)[C@@H](NC(=O)OC)C(C)(C)C(F)(F)F)C(C)(C)C(F)(F)F = 0.43

###

assay: 3H Human Predicted Clearance Assay (tritiated analogs); type: in vitro ADME; conditions: human, 1 uM
Reported Metric: 3H Human Predicted Cl.
Give the value as a plain number.

// 3H Human Predicted Cl. lookup, compound = COC(=O)N[C@H](C(=O)N[C@@H](Cc1ccc(C#Cc2ccc(N3CC4CCC(C3)N4C3COC3)nc2)cc1)[C@@H](O)CN(Cc1c(F)cc(-c2cc(F)ccn2)cc1F)NC(=O)[C@@H](NC(=O)OC)C(C)(C)C(F)(F)F)C(C)(C)C(F)(F)F , result: 0.13

What the record says about COC(=O)N[C@H](C(=O)N[C@@H](Cc1ccc(C#Cc2ccc(N3CC4CCC(C3)N4C3COC3)nc2)cc1)[C@@H](O)CN(Cc1c(F)cc(-c2nnc(C3CC3)s2)cc1F)NC(=O)[C@@H](NC(=O)OC)C(C)(C)C(F)(F)F)C(C)(C)C(F)(F)F : 3H Human Predicted Cl. is 0.11
